assayed system: human IDO1 (Homo sapiens)
assay text: Human IDO-1 inhibitory activity in HEK cells (human IDO1/HEK293 cellular assay)
Type: cell-based
Design: expressed in transfected cells
assay conditions: HEK human IDO-1 cellular assay; 500 nM reference standard = 100% inhibition, DMSO = 0%
Parameter: IC50. Scope: all listed entries.

{"columns": ["compound", "IC50"],
 "data": [
  ["CCC(CC(=O)O)c1ccc(N2C[C@@H]3C[C@H]2CN3Cc2ccccc2)c(Nc2ccc(C)cc2)c1 (single isomer, unassigned) [Example 666 E2]", "< 5 nM"],
  ["CCN(c1ccc(C(C)CC(=O)O)cc1NC(=O)Nc1ccc(Cl)cc1F)C1CCOCC1 (single isomer, unassigned) [Example 637 E2]", "< 5 nM"],
  ["CCC(CC(=O)O)c1cc(F)c(N(CC(C)C)C2CCCCC2)c(NC(=O)Cc2ccc(C)cc2)c1 (single isomer, unassigned) [Example 1101 E2]", "< 5 nM"],
  ["CCC(CC(=O)O)c1ccc(N(CC(C)C)CC(C)C)c(NC(=O)Cc2ccc(C)cc2)c1 (single isomer, unassigned) [Example 1103 E2]", "< 5 nM"],
  ["CCC(CC(=O)O)c1ccc(N(CC(C)C)C(C)C)c(Nc2ccc3nc(C)sc3c2)c1 (single isomer, unassigned) [Example 730]", "> 50 nM"],
  ["CCC(CC(=O)O)c1cc(F)c(N(CC(C)C)CC(C)C)c(NC(=O)Cc2ccc(Cl)cc2F)c1 (single isomer, unassigned) [Example 1092 E2]", "< 5 nM"]
]}

----------
assayed system: human IDO1 (Homo sapiens, UniProt P14902)
Sequence (P14902 whole entry): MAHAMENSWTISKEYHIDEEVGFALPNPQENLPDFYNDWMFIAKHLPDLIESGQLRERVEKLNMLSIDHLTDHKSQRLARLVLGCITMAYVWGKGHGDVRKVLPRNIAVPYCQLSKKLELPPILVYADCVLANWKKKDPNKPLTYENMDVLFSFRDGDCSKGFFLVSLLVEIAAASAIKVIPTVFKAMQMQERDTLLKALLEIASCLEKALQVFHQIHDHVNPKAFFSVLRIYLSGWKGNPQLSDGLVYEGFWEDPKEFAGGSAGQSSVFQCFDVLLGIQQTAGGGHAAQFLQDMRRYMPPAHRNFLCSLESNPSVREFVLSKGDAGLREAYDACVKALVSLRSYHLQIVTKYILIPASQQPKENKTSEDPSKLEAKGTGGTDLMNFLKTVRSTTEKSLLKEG
assay text: Human IDO-1 inhibitory activity in Hela cells (interferon-gamma stimulated)
Type: cell-based
Set-up: endogenous in cells; host or cells: HeLa cells stimulated with interferon-gamma
assay conditions: 18 hours, unstimulated wells = 100% inhibition
property name: IC50

{"columns": ["compound", "property name", "result"],
 "data": [
  ["CCc1ccc(Nc2cc([C@H](COC)CC(=O)O)ccc2N(CC)C2CCOCC2)cc1 (single isomer, unassigned)", "IC50", "< 0.005 µM"],
  ["COCC(CC(=O)O)c1ccc(N2C[C@@H](C)O[C@@H](C)C2)c(Nc2ccc(Cl)cc2)c1 (single isomer, unassigned)", "IC50", "> 0.05 µM"],
  ["COCC(CC(=O)O)c1ccc(N2CCOC(C)(C)C2)c(Nc2ccc(Cl)cc2)c1 (single isomer, unassigned) [Example 1315 E2]", "IC50", "> 0.05 µM"],
  ["CCN(c1ccc([C@H](COC)CC(=O)O)cc1Nc1ccc(F)cc1)C1CCOCC1 (single isomer, unassigned)", "IC50", "< 0.005 µM"],
  ["CCN(c1ccc(C(COC)CC(=O)O)cc1Nc1cnc(OC)nc1)C1CCS(=O)(=O)CC1 (single isomer, unassigned) [Example 168 Enantiomer 2]", "IC50", "> 0.05 µM"],
  ["CCN(c1ccc([C@H](COC)CC(=O)O)cc1Nc1ccc(F)cc1F)C1CCOCC1 (single isomer, unassigned)", "IC50", "< 0.05 µM"],
  ["CCN(c1ccc([C@H](COC)CC(=O)O)cc1Nc1ccc(C#N)c(F)c1)C1CCOCC1 (single isomer, unassigned)", "IC50", "< 0.005 µM"],
  ["CCN(c1ccc(C(CC(=O)O)C2CC2)cc1NC(=O)Nc1ccc(C#N)cc1)C1CCS(=O)(=O)CC1 (single isomer, unassigned) [Example 348 E2]", "IC50", "> 0.05 µM"],
  ["CCC(CC(=O)O)c1ccc(N(CCOC)C2CCOCC2)c(NC(=O)Nc2ccc(C)cc2)c1 (single isomer, unassigned) [Example 1264 E2]", "IC50", "> 0.05 µM"],
  ["CCN(c1ccc([C@H](COC)CC(=O)O)cc1Nc1ccc(C#N)cn1)C1CCOCC1 (single isomer, unassigned)", "IC50", "< 0.05 µM"],
  ["COCC(CC(=O)O)c1ccc(N2CCOC(C)(C)C2)c(NC(=O)Nc2ccc(Cl)cc2F)c1 (single isomer, unassigned) [Example 1318 E2]", "IC50", "> 0.05 µM"],
  ["CCN(c1ccc([C@H](COC)CC(=O)O)cc1Nc1ccc(Cl)cn1)C1CCOCC1 (single isomer, unassigned)", "IC50", "< 0.05 µM"],
  ["CCC(CC(=O)O)c1ccc(N2CCN(C(=O)OC)CC2)c(Nc2ccc(C#N)cc2)c1 (single isomer, unassigned) [Example 668 Enantiomer 2]", "IC50", "> 0.05 µM"]
]}
